Item-by-item account of MN index (motoneuron cell survival number ratio as compared to negative control)
Test system: motoneuron cells derived from iPS cells having SOD1-L144FVX mutation
ASSAY_INFO: survival of motoneuron cells induced from ALS patient iPS cells (SOD1 mutation); note: test concentration or dose not given here
MEASUREMENT_SETUP: SOD1-L144FVX motoneuron cells contacted with medicament for 7 days; negative control DMSO
API note: the answer field is a bare number with no unit suffix.

Check out these entries, answers already filled in.
>>> experimental_value("Cn1cnc2cc3c(Nc4cccc(Br)c4)ncnc3cc21")
8.14
>>> experimental_value("Oc1ccc(O)cc1 [HYDROQUINONE]")
7.96
>>> experimental_value("CC1(C)O[C@@H]2C[C@H]3[C@@H]4C[C@H](F)C5=CC(=O)C=C[C@]5(C)[C@H]4[C@@H](O)C[C@]3(C)[C@]2(C(=O)CO)O1 [FLUNISOLIDE]")
7.86

# get_value(readout='MN index (motoneuron cell survival number ratio as compared to negative control)', item= Cc1nc(N)sc1-c1ccnc(Nc2ccc(N3CCOCC3)cc2)n1 )
8.14

Request: COc1ccc2c(c1OC)C(=O)OC2C1c2cc3c(cc2CCN1C)OCO3 [HYDRASTINE (1R,9S)]
7.53

----------
Test system: motoneuron cells derived from iPS cells having SOD1-L144FVX mutation
ASSAY_INFO: survival of motoneuron cells induced from ALS patient iPS cells (SOD1 mutation); note: test concentration or dose not given here
MEASUREMENT_SETUP: SOD1-L144FVX motoneuron cells contacted with medicament for 7 days; negative control DMSO
Record y whenever MN index (motoneuron cell survival number ratio as compared to negative control) is at 9 or higher; record n when lower.

>>> class("O=C1c2ccccc2-c2n[nH]c3cccc1c23 [SP600125]")
"n"
>>> class("O=C(/C=C/C=C/c1ccc2c(c1)OCO2)N1CCCCC1 [PIPERINE]")
"n"
>>> class("CCOc1ccn(-c2ccc(F)cc2)c(=O)c1C(=O)Nc1ccc(Oc2ccnc(N)c2Cl)c(F)c1 [BMS 777607]")
"n"

// next entry
Hello, I need to know if Cc1cc2nc3c(=O)[nH]c(=O)nc-3n(C[C@H](O)[C@H](O)[C@H](O)CO)c2cc1C [RIBOFLAVIN] has measured MN index (motoneuron cell survival number ratio as compared to negative control) not below 9. Thanks!
y
